STUDY SYSTEM: human LPA1 (Homo sapiens, UniProt Q92633)
Construct: expressed in transfected cells; host or cells: Chinese hamster ovary (CHO) cells
Sequence (Q92633 whole entry): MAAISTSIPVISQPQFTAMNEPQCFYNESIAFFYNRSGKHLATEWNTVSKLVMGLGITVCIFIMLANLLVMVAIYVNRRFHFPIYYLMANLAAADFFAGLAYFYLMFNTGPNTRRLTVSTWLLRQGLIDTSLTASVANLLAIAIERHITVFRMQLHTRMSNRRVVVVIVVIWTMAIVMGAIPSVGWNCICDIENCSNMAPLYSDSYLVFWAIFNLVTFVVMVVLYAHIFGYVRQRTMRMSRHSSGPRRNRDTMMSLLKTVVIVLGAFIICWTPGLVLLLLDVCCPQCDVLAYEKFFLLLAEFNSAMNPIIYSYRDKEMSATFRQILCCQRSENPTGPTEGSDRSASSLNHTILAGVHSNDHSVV
ASSAY DETAILS: LPA1 functional antagonist assay (LPA-induced calcium flux)
Format: cell-based
PARTICULARS: read-out: hLPA1 IC50
pIC50: −log10 of the molar value.
VALUE KIND: pIC50

{"COMPOUND": "CCCCN(C)C(=O)OCc1c(-c2ccc(O[C@H]3CCC[C@H](C(=O)O)C3)c(C)c2)nnn1C", "VALUE KIND": "pIC50", "EXPERIMENTAL RESULT": 7.55}
{"COMPOUND": "Cc1nc(-c2nnn(C)c2COC(=O)N(C)Cc2ncccn2)ccc1O[C@H]1CCC[C@H](C(=O)O)C1", "VALUE KIND": "pIC50", "EXPERIMENTAL RESULT": 5.96}
{"COMPOUND": "CCCCN(C)C(=O)OCc1c(-c2ccc(O[C@H]3CCC[C@H](C(=O)O)C3)cc2)nnn1C (racemic)", "VALUE KIND": "pIC50", "EXPERIMENTAL RESULT": 7.49}
{"COMPOUND": "Cc1nc(-c2nnn(C)c2COC(=O)N2CCCC2C(F)(F)F)ccc1O[C@H]1CCC[C@H](C(=O)O)C1 (mixture of isomers)", "VALUE KIND": "pIC50", "EXPERIMENTAL RESULT": 6.49}
{"COMPOUND": "C[C@H](c1ccccc1)N(C)C(=O)OCc1c(-c2ccc(O[C@H]3CCC[C@H](C(=O)O)C3)cn2)nnn1C", "VALUE KIND": "pIC50", "EXPERIMENTAL RESULT": 7.68}
{"COMPOUND": "Cc1nc(-c2nnn(C)c2COC(=O)N2CCC(C)(C)C2)ccc1O[C@H]1CCC[C@H](C(=O)O)C1", "VALUE KIND": "pIC50", "EXPERIMENTAL RESULT": 6.83}
{"COMPOUND": "Cc1nc(-c2nnn(C)c2COC(=O)NCC2CCC2)ccc1O[C@H]1CCC[C@H](C(=O)O)C1", "VALUE KIND": "pIC50", "EXPERIMENTAL RESULT": 6.97}
{"COMPOUND": "CN(CC1CCC1)C(=O)OCc1c(-c2ccc(O[C@H]3CCC[C@H](C(=O)O)C3)cn2)nnn1C", "VALUE KIND": "pIC50", "EXPERIMENTAL RESULT": 7.92}
{"COMPOUND": "CCC(C)N(C)C(=O)OCc1c(-c2ccc(O[C@H]3CCC[C@H](C(=O)O)C3)cc2)nnn1C (mixture of isomers)", "VALUE KIND": "pIC50", "EXPERIMENTAL RESULT": 6.49}
{"COMPOUND": "CN(Cc1ccccc1)C(=O)OCc1c(-c2ccc(O[C@H]3CCC[C@H](C(=O)O)C3)cn2)nnn1C", "VALUE KIND": "pIC50", "EXPERIMENTAL RESULT": 7.74}
{"COMPOUND": "CCN(CC1CCC1)C(=O)OCc1c(-c2ccc(O[C@H]3CCC[C@H](C(=O)O)C3)c(C)n2)nnn1C", "VALUE KIND": "pIC50", "EXPERIMENTAL RESULT": 7.82}
{"COMPOUND": "Cc1nc(-c2nnn(C)c2COC(=O)N(C)CCC(F)(F)F)ccc1O[C@H]1CCC[C@H](C(=O)O)C1", "VALUE KIND": "pIC50", "EXPERIMENTAL RESULT": 7.31}
{"COMPOUND": "CC(C1CCC1)N(C)C(=O)OCc1c(-c2ccc(O[C@H]3CCC[C@H](C(=O)O)C3)cc2)nnn1C (single isomer, unassigned) [Example 49]", "VALUE KIND": "pIC50", "EXPERIMENTAL RESULT": 7.85}
{"COMPOUND": "Cc1nc(-c2nnn(C)c2COC(=O)N(C)CCc2ccccc2)ccc1O[C@H]1CCC[C@H](C(=O)O)C1", "VALUE KIND": "pIC50", "EXPERIMENTAL RESULT": 6.92}
{"COMPOUND": "CCCC1(N(C)C(=O)OCc2c(-c3ccc(O[C@H]4CCC[C@H](C(=O)O)C4)c(C)n3)nnn2C)CC1", "VALUE KIND": "pIC50", "EXPERIMENTAL RESULT": 7.44}
{"COMPOUND": "Cc1nc(-c2nnn(C)c2COC(=O)N(C)CC2COCCN2)ccc1O[C@H]1CCC[C@H](C(=O)O)C1 (some centres unmarked)", "VALUE KIND": "pIC50", "EXPERIMENTAL RESULT": 6.18}
{"COMPOUND": "CC(OC(=O)N(C)C1CCCC1)c1c(-c2ccc(O[C@H]3CCC[C@H](C(=O)O)C3)cc2)nnn1C (some centres unmarked)", "VALUE KIND": "pIC50", "EXPERIMENTAL RESULT": 6.62}
{"COMPOUND": "CCCC(C)(C)N(C)C(=O)OCc1c(-c2ccc(O[C@H]3CCC[C@H](C(=O)O)C3)cn2)nnn1C", "VALUE KIND": "pIC50", "EXPERIMENTAL RESULT": 7.57}
{"COMPOUND": "CN(Cc1ccccc1)C(=O)OCc1c(-c2ccc(O[C@H]3CCC[C@H](C(=O)O)C3)cc2)nnn1C (racemic)", "VALUE KIND": "pIC50", "EXPERIMENTAL RESULT": 6.89}
{"COMPOUND": "Cc1nc(-c2nnn(C)c2COC(=O)N(C)[C@H](C)c2ccccc2)ccc1O[C@H]1CCC[C@H](C(=O)O)C1", "VALUE KIND": "pIC50", "EXPERIMENTAL RESULT": 7.77}

###

Form field: pIC50 (one value per entry).
STUDY SYSTEM: human LPA1 (Homo sapiens, UniProt Q92633)
Construct: expressed in transfected cells; host or cells: Chinese hamster ovary (CHO) cells
ASSAY DETAILS: LPA1 functional antagonist assay (LPA-induced calcium flux)
Assay type: cell-based
PARTICULARS: CHO cells overexpressing human LPA1; inhibition of calcium flux induced by 10 nM LPA; read-out: hLPA1 IC50
pIC50: −log10 of the molar value.

{"COMPOUND STRING": "Cc1nc(-c2nnn(C)c2COC(=O)N(C)CC2CCC2)ccc1O[C@H]1CCC[C@H](c2nnn[nH]2)C1", "pIC50": 7.66}
{"COMPOUND STRING": "Cc1nc(-c2nnn(C)c2COC(=O)N(C)CC(C)(C)C)ccc1O[C@H]1CCC[C@H](C(=O)O)C1", "pIC50": 7.12}
{"COMPOUND STRING": "Cc1nc(-c2nnn(C)c2COC(=O)N(C)C[C@@H]2C[C@H]2C)cnc1O[C@H]1CCC[C@H](C(=O)O)C1", "pIC50": 7.15}
{"COMPOUND STRING": "CCCCN(C)C(=O)OCc1c(-c2ccc(O[C@H]3CCC[C@H](C(=O)O)C3)c(CC)n2)nnn1C", "pIC50": 8.15}
{"COMPOUND STRING": "Cc1nc(-c2nnn(C)c2COC(=O)N(C)CCC(C)C)cnc1O[C@H]1CCC[C@H](C(=O)O)C1", "pIC50": 7.72}
{"COMPOUND STRING": "COCc1nc(-c2nnn(C)c2COC(=O)N(C)CC2CC2)ccc1O[C@H]1CCC[C@H](C(=O)O)C1", "pIC50": 6.00}
{"COMPOUND STRING": "CCCN(C)C(=O)OCc1c(-c2ccc(O[C@H]3CCC[C@H](C(=O)O)C3)c(C(F)(F)F)n2)nnn1C", "pIC50": 7.55}
{"COMPOUND STRING": "CCCN(C)C(=O)OCc1c(-c2ccc(O[C@H]3CCC[C@H](C(=O)O)C3)c(C(F)F)n2)nnn1C", "pIC50": 7.46}
{"COMPOUND STRING": "C[C@H]1C[C@@H]1CN(C)C(=O)OCc1c(-c2ccc(O[C@H]3CCC[C@H](C(=O)O)C3)cn2)nnn1C", "pIC50": 7.54}

###

STUDY SYSTEM: human LPA1 (Homo sapiens)
Construct: expressed in transfected cells; host or cells: Chinese hamster ovary (CHO) cells
ASSAY DETAILS: LPA1 functional antagonist assay (LPA-induced calcium flux)
Type: cell-based
PARTICULARS: read-out: hLPA1 IC50
Description: The effectiveness of compounds of the present invention as LPA1 inhibitors can be determined in an LPA1 functional antagonist assay as follows: Chinese hamster ovary cells overexpressing human LPA1 were plated overnight (15,000 cells/well) in poly-D-lysine coated 384-well microplates (Greiner bio-one, Cat #781946) in DMEM/F12 medium (Gibco, Cat #11039). […] IC50 values were determined by fitting data to a 4-parameter logistic equation (GraphPad Prism, San Diego Calif.).
pIC50: −log10 of the molar value.

{"MOLECULE": "[2H]C([2H])([2H])n1nnc(-c2ccc(O[C@H]3CCC[C@H](C(=O)O)C3)cn2)c1COC(=O)N(C)CC1CCC1", "pIC50": 7.55}
{"MOLECULE": "Cc1nc(-c2nnn(C)c2COC(=O)N(C)CCC(C)C)ccc1O[C@H]1CCC[C@H](C(=O)O)C1", "pIC50": 7.80}
{"MOLECULE": "CCCCCN(C)C(=O)OCc1c(-c2ccc(O[C@H]3CCC[C@H](C(=O)O)C3)cc2)nnn1C (racemic)", "pIC50": 6.60}
{"MOLECULE": "Cc1nc(-c2nnn(C)c2COC(=O)N(C)C2(C(C)C)CC2)ccc1O[C@H]1CCC[C@H](C(=O)O)C1", "pIC50": 6.45}
{"MOLECULE": "Cc1nc(-c2nnn(C)c2COC(=O)N(C)CC2CCOCC2)ccc1O[C@H]1CCC[C@H](C(=O)O)C1", "pIC50": 7.77}
{"MOLECULE": "Cc1cc(-c2nnn(C)c2COC(=O)N(C)[C@H](C)C2CC2)ccc1O[C@H]1CCC[C@H](C(=O)O)C1", "pIC50": 8.22}

Data provenance is patent US10576062B2.
